Target: T1, human MSLN-R3-his protein (human, UniProt Q13421 487-598)
T1 construct: also called human MSLN-R3 protein; hMSLN-R3-his; not shown: His tag
T1 sequence (Q13421 495-606): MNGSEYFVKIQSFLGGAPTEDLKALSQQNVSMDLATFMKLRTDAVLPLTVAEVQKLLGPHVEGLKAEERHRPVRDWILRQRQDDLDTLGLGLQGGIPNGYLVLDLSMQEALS
Assay: ELISA, coated antigen; no antibody (blank, column 'none')
result-type: OD450 (OD450)

[[record]]
binder = "S009-F3.7.3 (antibody, human IgG1, kappa, V domains shown, Human-murine chimeric antibody: murine VH/VL on human IgG1 heavy chain constant region and human kappa constant region) VH: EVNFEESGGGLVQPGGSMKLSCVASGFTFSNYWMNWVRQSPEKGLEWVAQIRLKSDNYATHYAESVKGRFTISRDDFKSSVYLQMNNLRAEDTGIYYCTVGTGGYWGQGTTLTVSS VL: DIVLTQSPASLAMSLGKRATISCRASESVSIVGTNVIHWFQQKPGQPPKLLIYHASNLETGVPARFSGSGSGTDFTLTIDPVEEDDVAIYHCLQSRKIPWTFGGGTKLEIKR"
obs_value = 0.08

[[record]]
binder = "S009-F3.74.20 (antibody, human IgG1, kappa, V domains shown, Human-murine chimeric antibody, human IgG1/kappa constant regions) VH: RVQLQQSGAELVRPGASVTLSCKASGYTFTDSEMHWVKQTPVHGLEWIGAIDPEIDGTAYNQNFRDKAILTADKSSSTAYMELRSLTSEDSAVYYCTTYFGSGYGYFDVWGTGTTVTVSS VL: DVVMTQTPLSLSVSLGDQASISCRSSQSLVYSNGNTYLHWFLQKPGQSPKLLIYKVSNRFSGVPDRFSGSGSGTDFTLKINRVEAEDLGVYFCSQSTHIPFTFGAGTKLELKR"
obs_value = 0.09

